tested on: AHR (Homo sapiens)
Construct: U87 MG glioblastoma cells (ATCC #HTB-14) endogenously expressing AHR; endogenous in cells; host or cells: U87 MG glioblastoma cells (ATCC #HTB-14)
Sequence (P35869 11-848): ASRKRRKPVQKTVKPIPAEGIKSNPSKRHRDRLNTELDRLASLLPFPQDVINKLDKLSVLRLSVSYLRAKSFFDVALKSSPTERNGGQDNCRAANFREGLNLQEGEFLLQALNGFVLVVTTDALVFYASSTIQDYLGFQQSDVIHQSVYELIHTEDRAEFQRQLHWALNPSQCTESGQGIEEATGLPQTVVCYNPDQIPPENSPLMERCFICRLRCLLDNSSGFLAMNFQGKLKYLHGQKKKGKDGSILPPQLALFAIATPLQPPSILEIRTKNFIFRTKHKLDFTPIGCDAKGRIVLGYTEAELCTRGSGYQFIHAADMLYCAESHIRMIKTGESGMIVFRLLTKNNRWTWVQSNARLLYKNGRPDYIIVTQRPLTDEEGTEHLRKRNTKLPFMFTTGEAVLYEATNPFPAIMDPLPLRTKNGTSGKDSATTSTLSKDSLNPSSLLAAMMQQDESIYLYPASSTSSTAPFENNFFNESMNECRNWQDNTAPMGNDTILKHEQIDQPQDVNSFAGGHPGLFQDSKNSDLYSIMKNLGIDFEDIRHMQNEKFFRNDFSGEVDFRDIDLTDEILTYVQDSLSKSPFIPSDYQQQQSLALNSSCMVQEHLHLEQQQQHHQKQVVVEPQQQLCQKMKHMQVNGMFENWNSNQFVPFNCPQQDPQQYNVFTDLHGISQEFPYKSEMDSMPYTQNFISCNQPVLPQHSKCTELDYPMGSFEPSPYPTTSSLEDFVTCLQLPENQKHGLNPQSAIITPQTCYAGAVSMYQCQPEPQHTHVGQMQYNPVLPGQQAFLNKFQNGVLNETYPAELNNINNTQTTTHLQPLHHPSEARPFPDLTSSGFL
method: In vitro assay 1: antagonism in human cell line (AHR transactivation, firefly luciferase reporter, kynurenic acid prestimulated)
Type: cell-based
conditions: AHR Antagonism Human IC50 [M]
experimental readout: IC50 (M)

P: Cn1cc(-c2nc3c4ccccc4nc(NC4CCCNC4=O)n3n2)cn1 (single isomer, unassigned) [Example 21]
Q: CC[C@@H](Nc1nc2c(Br)cccc2c2nc(-c3cnn(C)c3)nn12)C(N)=O
R: COc1ccc(-c2nc3c4ccccc4nc(N[C@@H]4CNCCNC4=O)n3n2)c(C)c1
Q: Please sort the molecules listed above from highest to lowest IC50. Give the labels in the order requested.
Result: P, R, Q

I: COc1cccc(-c2nc3c4ccccc4nc(N[C@H]4CCCCNC4=O)n3n2)c1
II: Cc1cc(C(F)F)c2nc(N[C@@H]3CCCCNC3=O)n3nc(-c4cnn(C)c4)nc3c2c1
III: COc1ccc(-c2nc3c4cc(Cl)ccc4nc(N[C@@H]4CCCCNC4=O)n3n2)cc1
IV: Cc1nn(C)cc1-c1nc2c3ccccc3nc(N[C@@H]3CCCCNC3=O)n2n1
Q: Rank items: key IC50, increasing. Give the labels in the order requested.
Result: IV, III, I, II

P: N#Cc1cccc2c1nc(N[C@@H]1CCCCNC1=O)n1nc(-c3cnn(C(F)F)c3)nc21
Q: COc1ccc(-c2nc3c4c(Cl)cccc4nc(N[C@@H]4CCCCNC4=O)n3n2)cc1
R: CCOc1cccc2c1nc(N[C@@H]1CCCCNC1=O)n1nc(-c3ccc(OC)cc3)nc21
S: CCCCNC(=O)CNc1nc2ccccc2c2nc(-c3ccc(S(C)(=O)=O)cc3)nn12
T: O=C1NCCCC1Nc1nc2ccccc2c2nc(-c3cccc(F)c3)nn12 (centres unmarked)
Q: Rank items: key IC50, increasing. Give the labels in the order requested.
Result: Q, P, R, T, S
(Q: 9.09e-10 M, P: 1.86e-09 M, R: 2.68e-09 M, T: 5.44e-08 M, S: 2.9e-07 M)
